Source: ChEMBL document CHEMBL1157539

Test system: Plasmodium falciparum
protocol-notes: GSK_TCMDC: Inhibition of Plasmodium falciparum Dd2 in whole red blood cells, using parasite LDH activity as an index of growth. Test compounds present at 2uM
Assay type: functional
Please respond with reported Inhibition for every item in the list.
The answer consists of two parts: a number and, after it, its unit.

Here are 4 compounds together with their reported answers.
[[record]]
structure_as_smiles = "COc1cc(C(F)(F)F)nc2c(CNCCCNc3cc(=O)c4ccccc4[nH]3)scc12.Cl"
endpoint_result = "16%"

[[record]]
structure_as_smiles = "COc1ccccc1N=C1SC(=Cc2cn(CC(=O)N3CCCc4ccccc43)c3ccccc23)C(=O)N1C1CCCCC1"
endpoint_result = "99%"

[[record]]
structure_as_smiles = "Cc1nc2ccccc2c(O)c1-c1ccc(Cl)cc1"
endpoint_result = "91%"

[[record]]
structure_as_smiles = "CCc1cc(CNC2CCN(CCc3c(F)cnc4ccc(OC)nc34)CC2)cc2c1OCCO2.Cl"
endpoint_result = "94%"


Shift focus to the following entry.
Task item: Entry Br.Cc1ccc(OCCCCON2C(=N)N=C(N)NC2(C)C)cc1C has what Inhibition?
Reply: 97%

###

Consider the following compounds; for each one, report its Inhibition.
Test system: HepG2
protocol-notes: GSK_TCMDC: Percent inhibition of human HepG2 cell line. Test compounds present at 10uM.
Type: functional
Give bare numbers, in %.

[[record]]
compound = "Cc1cc(N2CCC(C)CC2)nc2cc(O)ccc12"
system = "HepG2"
readout_unit = "%"
endpoint_result = 31

[[record]]
compound = "O=C(CCNc1ccnc(NCC2CCCCC2)n1)Nc1ccccc1.O=C(O)C(F)(F)F"
system = "HepG2"
readout_unit = "%"
endpoint_result = 55

[[record]]
compound = "Br.CC1(C)NC(N)=NC(=N)N1OCCCCOc1ccccc1"
system = "HepG2"
readout_unit = "%"
endpoint_result = 60

[[record]]
compound = "Cc1ccccc1-c1cc(=O)c2cc(NC(=O)c3cccs3)ccc2o1"
system = "HepG2"
readout_unit = "%"
endpoint_result = 22

[[record]]
compound = "CCN(CCCN1CCCCC1)c1cc(C)nc(Nc2cc(Br)ccc2C)n1.O=C(O)C(F)(F)F"
system = "HepG2"
readout_unit = "%"
endpoint_result = 32


With those in mind, consider the next compound.
Task item: Inhibition of COc1ccc(-c2ccc(CN(C)C3CCC(NC(=O)c4cc5ccccc5[nH]4)CC3)cc2)cn1 (stereo unspecified) on HepG2?
Reply: 31

###

For each of the molecules below, state its Inhibition.
System: HepG2
protocol-notes: GSK_TCMDC: Percent inhibition of human HepG2 cell line. Test compounds present at 10uM.
Assay type: functional
One number for each entry, in %.

Recorded results for 4 molecules are shown here.
[[record]]
molecule = "C=CCOc1ccc(C(=O)Nc2nonc2-c2ccc(OC)c(OC)c2)cc1"
test_readout = "Inhibition"
endpoint_result = 2

[[record]]
molecule = "Nc1nc(N)c2cc(CNc3ccc(Cl)c(Cl)c3)ccc2n1"
test_readout = "Inhibition"
endpoint_result = 62

[[record]]
molecule = "Cc1cc2c(cc1C(F)(F)F)N(C(=O)Nc1cc(C(=O)NC3CCN(Cc4ccccc4)C3)cc(C(F)(F)F)c1)CC2.Cl (stereo not given)"
test_readout = "Inhibition"
endpoint_result = 22

[[record]]
molecule = "Cn1nc(-c2ccccc2F)c2cc(C(=O)Nc3cccnc3)sc21"
test_readout = "Inhibition"
endpoint_result = 5


We now examine a further molecule.
Task item: Request the reported Inhibition associated with CN1CCC(N2CCN(Cc3ccc(-c4ccc(-c5nc6ccccc6[nH]5)s4)cc3)CC2)CC1.O=C(O)C(F)(F)F
Reply: 62
